Experiment: label from the status in PepcDB records
Metric: protein production

1. MNTPHGPLEYSLNSPFKAKGRFGRLSFAAWSFVSTLAIIGMLLVISVVFGALASDSNAIQIFGSLLLIAIYVTFLVFSVIFIIRRLHDRNHNGWFAILFFIPIINLIFIIYLLCAKGDIETNRFGAPRATPSWERVMGWIYIVLMPIVVILGVSSDAMMAYQRYTLHSKQVSDVSQMIQPVSTHNNRLS | failed
2. MVFLIVPILTILGLSIHEAIGTSLACIAISSFSSAYTHLKKGKVHIKVVILKELFSIPAAVLGAYLTNDINEKILRVAFSMLLFYLAVRLTVKRRAKDSKEAKIHYERVPLVGVASGFLSGLLGISGGILNVPLFTIFVGIPIKYSIGTSSLALFFTALAGAITHLKEGNVVLSIALALAPGLIVGAYVGAIVSHRIHSDKLRVLFSALLLIIGVRMLV | failed

====

Test: label from the status in PepcDB records
Metric: protein production

1) MAINIIEYNRSYKEELIEFILSIQKNEFNIKIDRDDQPDLENIEHNYLNSGGQFWLAINNHQNIVGTIGLIRLDNNMSALKKMFVDKGYRNLKIGKKLLDKVIMTCKEQNIDGIYLGTIDKFISAQYFYSNNGFREIKRGDLPSSFPKLDVDNRFYYRNLKD | not failed
2) MTKFNWHESAEKKWDSSAEFWNQNSQEMWDSGSRSTIIPFFEQYVKKEAQVLDVGCGDGYGTYKLSRAGYKAVGVDISEVMIQKGKERGEGPDLSFIKGDLSSLPFENEQFEAIMAINSLEWTEEPLRALNEIKRVLKSDGYACIAILGPTAKPRENSYPRLYGKDVVCNTMMPWEFEQLVKEQGFKVVDGIGVYKRGVNEKMLGQLSTELQQSLTFLWVFMLKKHKEMKEFLGGK | failed
3) MSGEDEQQEQTIAEDLVVTKYKMGGDIANRVLRSLVEASSSGVSVLSLCEKGDAMIMEETGKIFKKEKEMKKGIAFPTSISVNNCVCHFSPLKSDQDYILKEGDLVKIDLGVHVDGFIANVAHTFVVDVAQGTQVTGRKADVIKAAHLCAEAALRLVKPGNQNTQVTEAWNKVAHSFNCTPIEGMLSHQLKQHVIDGEKTIIQNPTDQQKKDHEKAEFEVHEVYAVDVLVSSGEGKAKDAGQRTTIYKRDPSKQYGLKMKTSRAFFSEVERRFDAMPFTLRAFEDEKKARMGVVECAKHELLQPFNVLYEKEGEFVAQFKFTVLLMPNGPMRITSGPFEPDLYKSEMEVQDAELKALLQSSASRKTQKKKKKKASKTAENATSGETLEENEAGD | failed
4) KMLMPIEFELVESAPLFHELLHLRDAVGLPSIGVDMADGHPLQPLYWVSIHLTAKQDKNTATIVATACVYGDNANHFAIEDFIVLPEYRHIGLGKIILERVMAFVDDRATLGTYVSINTHGEQEKLCTDYGFAHSH | failed
5) MKKLLTKGQIAILVIFSVLIIDQVIKIWIKTHMYWHESIRITDWFYIYFTENNGMAFGMELFGKLFLTTFRIVAVGLIGWYLYKIVKRGLKTGYIICVSLILTGALGNIIDSVFYGVIFNESTHSQIASFMPDGGGYSTWFYGKVVDMFYFPIIDTNWPTWMPFVGGEHFIFFSPIFNFADAAISCGIIALLLFYSKYLNDSYHHSVTKK | failed
6) QRSYERDFPHHDRICIVKTHGTRQSQEGDKPEELDFSQVSGGVAPAIQEEIPGVELATRTTLYGTSKMILEDNKTYETKTLLAEPAFLDMFGVELIAGVRDSALRDNMTCLISESLARKMGGDVLGKRLRPAESKSDRAITIGGVFEDLPHNSSIQADMLLPITWMPAESLNNWIGNDRYIAYVRLRPGVSPESLDEALLEMQKRHQDMEVFRKAGVELHYSLTPFNRLRLEDPTLVNMLRIQQ | not failed
7) MGMKDVFKRYLVFVIGLYFLAAGIVLIVRSALGTTPISSVNYVLSLNSPLSLGTCTFLINMLLILGQFWVIRKNKTRQDTIEILLQLPFSFIFSAFIDFNMALTSNLHPDNYGMSIALLLTGCMIQSIGVVLELKPKVAMMSAEAFVKYASRRYNKEFGKFKVCFDVTLVTLAVILSLLLSQCIEGVREGSLIAACITGYIVSFLNQKIMTRKTLYKLLPVLK | failed
8) MYIHLGDDFVVSTREIVAIFDYKAKTSPIVEEFLSKQKQRIVSSNSTPKSIVVTLQSIYFSPLASGTLKKRAQSKPEIDSLEHHHHHH | failed
9) SAAETRNVAGAEAPPPQKRYYRQRAHSNPMADHTLRYPVKPEEMDWSELYPEFFAPLTQNQSHDDPKDKKEKRAQAQVEFADIGCGYGGLLVELSPLFPDTLILGLEIRVKVSDYVQDRIRALRAAPAGGFQNIACLRSNAMKHLPNFFYKGQLTKMFFLFPDPHFKRTKHKWRIISPTLLAEYAYVLRVGGLVYTITDVLELHDWMCTHFEEHPLFERVPLEDLSEDPVVGHLGTSTEEGKKVLRNGGKNFPAIFRRIQDPVLQAVTSQTSLPGH | not failed
10) MQYATLELNNAFKVLFSLRQVQAAEMVIAPGDREGGPDNRHRGADQWLFVVDGAGEAIVDGHTQALQAGSLIAIERGQAHEIRNTGDTPLKTVNFYHPPAYDAQGEPLPAGEG | not failed
11) MSSFAELLQQGASQAWLYFPSAILLGALHGLEPGHSKTMMAAFIVAIRGTVKQAVLLGLASTLSHTAVVWLVAMAGMYLGQNLNAETTEPYFQLASAAIIITIALWMLWRTWRGEQMWRFEEGDDLQHDYHHHDEMQRIDTGHGRIELSIFEEGVPPRWRLNILTGHAWSAAEMSLLTTRPDGLAQQFRFVDRGDYLESVDEIPEPHEFTARLSLGHAGHSHDYDLEFHEHGHGHGHDHAELEGLELSLEGYQDAHERAHANDIRKRFSNRNVTTGQIILFGLTGGLIPCPAAITVLLLCLQVKEVALGAVLVLCFSIGLAITLVTVGAAAAIGARQASNRWPWLGAVARRAPYLSSLLIIGVGIYVGVHGWIGLNA | failed
12) MGHHHHHHSHRPESFFQQSFQRLSRLGHGSYGEVFKVRSKEDGRLYAVKRSMSPFRGPKDRARKLAEVGSHEKVGQHPCCVRLEQAWEEGGILYLQTELCGPSLQQHCEAWGASLPEAQVWGYLRDTLLALAHLHSQGLVHLDVKPANIFLGPRGRCKLGDFGLLVELGTAGAGEVQEGDPRYMAPELLQGSYGTAADVFSLGLTILEVACNMELPHGGEGWQQLRQGYLPPEFTAGLSSELRSVLVMMLEPDPKLRATAEALLALPVLRQPRAWGVLWCMAAEALSRG | failed
13) MNLPSRQWSSEVRQLVFIGFSAITAVVLSYSYVATVGLSEMLFAIVGAGLLLALVVILPVILLD | failed

====

Assay: label from the status in PepcDB records
Metric: protein production

1. MKVIEVTHPIQSNQFITENVAMAFGFFDGMHRGHDKVFQVLDEKAKEHQLKKAVMTFDPHPSVVLNPERKRTTYLTPLSDKLEMIAEHGIDYCIVINFSSRFANVTSDDFIKNYIINNHVKEVIAGFDFTFGKFGKGNMTVLQESKAFNTTIVGKQEMDSEKISTTAIRQALTDGHLQKANDELGYIYRIKGTVVQGEKRGRTIGFPTANVQPSDDYVLPKKGVYAVSMEIGPESKLHRGVANVGVKPTFHDPTRAELVIEVNIFDFNENIYGERVTVYWHHFLRPEVKFDGIDPLVKQMNEDKAQAKHLLSIDFDDDISYNI | failed
2. MEDSGKTFSSEEEEANYWKDLAMTYKQRAENTQEELREFQEGSREYEAELETQLQQIETRNRDLLSENNRLRMELETIKEKFEVQHSEGYRQISALEDDLAQTKAIKDQLQKYIRELEQANDDLERAKRATIMSLEDFEQRLNQAIERNAFLESELDEKENLLESVQRLKDEARDLRQELAVQQKQEKPRTPMPSSVEAERTDTAVQATGSVPSTPIAHRGPSSSLNTPGSFRRGLDDSTGGTPLTPAARISALNIVGDLLRKVGALESKLASCRNLVYDQSPNRTGGPASGRSSKNRDGGERRPSSTSVPLGDKGLGKRLEFGKPPSHMSSSPLPSAQGVVKMLL | failed
3. MHLLVVEDDDIVRMLMVEVLDDLGYKVIEAEDATAALRVLEDPSQALALMMTDVGLPDMRGEELAGKARELRPLLPVLFASGYADSFNVPEGMHLIGKPFSIDQLRDTVVGILGTP | failed

====

Assay: label from the status in PepcDB records
Metric: protein production

1. MAKQDVIELEGTVLDTLPNAMFKVELENGHEILAHVSGKIRMNYIRILPGDKVTVEMSPYDLTRGRITYRYK | failed
2. MKLHLTNLYGMAGDSTVILAQNAVQKIASQLGFREVGIYFYNIASDSPSEMNKRLDGIMASISIGDILVFQSPTWNGFEFDRLLFDKLKDMQVKIICFIHDVVPLMFDSNYYLMKDYLYMYNLSDVLIVPSERMKTRLMEEGLTTKKILVQGMWDHPHDLSLYTPAFKKELFFAGSLERFPDLQNWSQDTPLRVFSNKGEASSSARSLSIEGWKKDEELLLELSKGGFGLVWGTHQNEGESNQYYTLNISHKVSTYLTAGIPVIVPSSLSTAKFIVDQGLGFMADSLEEVHEIVDKMNLQEYQEMTNRIKTFSYLLKEGYFTKKLLVDAIYHLGID | failed
3. MLWSFIAVCFSAWLYVDASYRGPAWRRWVFKPVTLILLLLLAWQAPMFNAISYLVLAGLCASLLGDALTLLPRQRVMYAVGAFFLSHLLYTIWFASQLTLSFFWPLPLVLLVFGALLMAVIWSRLEEMKMPVLTFIGMTLVMVWLAGELWFARPTNTALSGFAGAALLLLSNAVWLVSHYRRRFRADNAIAAAFYFAGHFLIVRALYL | failed

Origin of the recorded values: a protein production outcome set (Wang et al. 2014)
